pIC50 values for the molecules below.
Target: CCR1 (Homo sapiens, UniProt P32246)
Sequence (P32246 whole entry): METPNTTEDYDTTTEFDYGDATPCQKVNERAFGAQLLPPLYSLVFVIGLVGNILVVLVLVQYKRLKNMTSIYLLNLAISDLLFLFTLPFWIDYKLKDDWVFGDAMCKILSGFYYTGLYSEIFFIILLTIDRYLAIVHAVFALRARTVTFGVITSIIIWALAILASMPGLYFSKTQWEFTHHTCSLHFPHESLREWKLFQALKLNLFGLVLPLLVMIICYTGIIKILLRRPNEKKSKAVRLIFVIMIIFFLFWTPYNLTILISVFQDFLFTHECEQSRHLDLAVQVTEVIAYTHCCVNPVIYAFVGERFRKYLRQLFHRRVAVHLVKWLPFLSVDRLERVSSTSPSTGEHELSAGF
Assay: Chemotaxis (migration) assay
Settings: THP-1 or monocyte cells, CCR1 chemokine ligand (MIP-1α, CCL15/Leukotactin), 1-2 hours at 37° C.
pIC50: −log10 of the molar value.
Experimental Endpoint: pIC50

[[record]]
molecule = "Cc1nc(C(F)(F)F)cn1C(C)C(=O)Nc1nnn(-c2ccc(Cl)cc2)c1C(C)C (stereo not drawn)"
assay_result = "≥ 7.00"

[[record]]
molecule = "Cc1nc(C(F)(F)F)nn1C(C)C(=O)Nc1cnn(-c2ccc(F)cc2)c1C(C)C (stereo not drawn)"
assay_result = "5.00 to 7.00"

[[record]]
molecule = "Cc1nc(C(F)(F)F)cn1C(C)C(=O)Nc1cnn(-c2ccc(F)cc2)c1N(C)C (stereo not drawn)"
assay_result = "5.00 to 7.00"

